# System: HCT116 (colorectal adenocarcinoma)
# assay.name: MTS cytotoxicity assay, HCT116
# Type: cell-based
# measurement.context: Homo sapiens, HCT-116, 72 h, read-out: IC50 cytotoxic activity HCT116
Below, each entry is listed alongside its reported IC50.
test.readout: IC50 (µM)

[[record]]
smi = "Cc1cc(C)c(Cn2cc([C@]3(O)CC[C@H]4[C@@H]5CCc6cc(O)ccc6[C@H]5CC[C@@]43C)nn2)cc1Cn1cc([C@]2(O)CC[C@H]3[C@@H]4CCc5cc(O)ccc5[C@H]4CC[C@@]32C)nn1"
data_value = 2.02

[[record]]
smi = "CC(=O)Oc1c(Cn2cc([C@]3(O)CC[C@H]4[C@@H]5CCc6cc(O)ccc6[C@H]5CC[C@@]43C)nn2)cc(C)cc1Cn1cc([C@]2(O)CC[C@H]3[C@@H]4CCc5cc(O)ccc5[C@H]4CC[C@@]32C)nn1"
data_value = 1.61

[[record]]
smi = "C[C@]12CC[C@@H]3c4ccc(O)cc4CC[C@H]3[C@@H]1CC[C@@]2(O)c1cn(Cc2cccc(Cn3cc([C@]4(O)CC[C@H]5[C@@H]6CCc7cc(O)ccc7[C@H]6CC[C@@]54C)nn3)c2)nn1"
data_value = 1.41

[[record]]
smi = "Cc1cc(Cn2cc([C@]3(O)CC[C@H]4[C@@H]5CCc6cc(O)ccc6[C@H]5CC[C@@]43C)nn2)c(O)c(Cn2cc([C@]3(O)CC[C@H]4[C@@H]5CCc6cc(O)ccc6[C@H]5CC[C@@]43C)nn2)c1"
data_value = 1.74

[[record]]
smi = "C[C@]12CC[C@@H]3c4ccc(O)cc4CC[C@H]3[C@@H]1CC[C@@]2(O)c1cn(Cc2ccc(O)c(Cn3cc([C@]4(O)CC[C@H]5[C@@H]6CCc7cc(O)ccc7[C@H]6CC[C@@]54C)nn3)n2)nn1"
data_value = 8.78


Data provenance is paper PMC467089.
